tested on: Escherichia coli; experiment: Antibacterial activity against Escherichia coli ATCC 25922 assessed as bacterial growth inhibition incubated for 24 hrs by CLSI based broth microdilution method; format: functional
measurement-kind: MIC

C=C[C@]1(C)C[C@@H](OC(=O)COC(=O)/C=C/c2ccsc2)[C@]2(C)[C@H](C)CC[C@]3(CCC(=O)[C@H]32)[C@@H](C)[C@@H]1O :: 32 µg/mL
C=C[C@]1(C)C[C@@H](OC(=O)COC(=O)/C=C/c2cccs2)[C@]2(C)[C@H](C)CC[C@]3(CCC(=O)[C@H]32)[C@@H](C)[C@@H]1O :: 32 µg/mL
C=C[C@]1(C)C[C@@H](OC(=O)COC(=O)/C=C/c2ccc(-c3ccccc3)cc2)[C@]2(C)[C@H](C)CC[C@]3(CCC(=O)[C@H]32)[C@@H](C)[C@@H]1O :: > 128 µg/mL
C=C[C@]1(C)C[C@@H](OC(=O)COC(=O)/C=C/c2ccc(Cn3ccnc3)cc2)[C@]2(C)[C@H](C)CC[C@]3(CCC(=O)[C@H]32)[C@@H](C)[C@@H]1O :: 64 µg/mL

Report MIC for each item below.
1. C=C[C@]1(C)C[C@@H](OC(=O)COC(=O)/C=C/c2ccc(OC)c(OC)c2)[C@]2(C)[C@H](C)CC[C@]3(CCC(=O)[C@H]32)[C@@H](C)[C@@H]1O
2. C=C[C@]1(C)C[C@@H](OC(=O)COC(=O)/C=C/c2ccc(F)c(Cl)c2)[C@]2(C)[C@H](C)CC[C@]3(CCC(=O)[C@H]32)[C@@H](C)[C@@H]1O
3. C=C[C@]1(C)C[C@@H](OC(=O)CS[C@@H]2C[C@H]3CC[C@@H](C2)N3C)[C@]2(C)[C@H](C)CC[C@]3(CCC(=O)[C@H]32)[C@@H](C)[C@@H]1O [RETAPAMULIN]
4. C=C[C@]1(C)C[C@@H](OC(=O)COC(=O)/C=C/c2ccc(OC)cc2)[C@]2(C)[C@H](C)CC[C@]3(CCC(=O)[C@H]32)[C@@H](C)[C@@H]1O

Result:
64 µg/mL
64 µg/mL
16 µg/mL
32 µg/mL

====

assay: Cytotoxicity against human HepG2 cells incubated for 24 hrs by CCK8 assay; format: toxicity, cell-based
measurement-kind: CC50 at 24 h

Below, each entry is followed by its recorded CC50 at 24 h result.
C=C[C@]1(C)C[C@@H](OC(=O)COC(=O)/C(C#N)=C/c2ccccc2)[C@]2(C)[C@H](C)CC[C@]3(CCC(=O)[C@H]32)[C@@H](C)[C@@H]1O :: > 200 µM
C=C[C@]1(C)C[C@@H](OC(=O)COC(=O)/C=C/c2ccc(N(C)C)cc2)[C@]2(C)[C@H](C)CC[C@]3(CCC(=O)[C@H]32)[C@@H](C)[C@@H]1O :: > 200 µM

Shift focus to the following entry.
Problem: Look up CC50 at 24 h for this molecule: C=C[C@]1(C)C[C@@H](OC(=O)COC(=O)/C=C/c2ccc([N+](=O)[O-])cc2)[C@]2(C)[C@H](C)CC[C@]3(CCC(=O)[C@H]32)[C@@H](C)[C@@H]1O
Result: > 200 µM

====

system: Klebsiella pneumoniae; assay: Antibacterial activity against multidrug-resistant Klebsiella pneumoniae 893 clinical isolate assessed as bacterial growth inhibition incubated for 24 hrs by CLSI based broth microdilution method; type: functional
Please go through the items and note down their MIC.
One number for each entry, in µg/mL.

A selection of reference data follows.
C=C[C@]1(C)C[C@@H](OC(=O)COC(=O)/C=C/c2ccc(N(C)C)cc2)[C@]2(C)[C@H](C)CC[C@]3(CCC(=O)[C@H]32)[C@@H](C)[C@@H]1O :: 64
C=C[C@]1(C)C[C@@H](OC(=O)COC(=O)/C=C/c2ccc([N+](=O)[O-])cc2)[C@]2(C)[C@H](C)CC[C@]3(CCC(=O)[C@H]32)[C@@H](C)[C@@H]1O :: 128
C=C[C@]1(C)C[C@@H](OC(=O)CS[C@@H]2C[C@H]3CC[C@@H](C2)N3C)[C@]2(C)[C@H](C)CC[C@]3(CCC(=O)[C@H]32)[C@@H](C)[C@@H]1O :: 64
C=C[C@]1(C)C[C@@H](OC(=O)CSC(C)(C)CNC(=O)[C@H](N)C(C)C)[C@]2(C)[C@H](C)CC[C@]3(CCC(=O)[C@H]32)[C@@H](C)[C@@H]1O :: 128
C=C[C@]1(C)C[C@@H](OC(=O)COC(=O)/C(C#N)=C/c2ccccc2)[C@]2(C)[C@H](C)CC[C@]3(CCC(=O)[C@H]32)[C@@H](C)[C@@H]1O :: 32
C=C[C@]1(C)C[C@@H](OC(=O)COC(=O)/C=C/c2cccc(C#N)c2)[C@]2(C)[C@H](C)CC[C@]3(CCC(=O)[C@H]32)[C@@H](C)[C@@H]1O :: 128

Problem: Looking for the measured MIC of C=C[C@]1(C)C[C@@H](OC(=O)COC(=O)/C=C/c2cccnc2)[C@]2(C)[C@H](C)CC[C@]3(CCC(=O)[C@H]32)[C@@H](C)[C@@H]1O , can you help?
Result: 64
